Below: a set of entries, each annotated with reported percent inhibition of TGF-beta1.
test system: human TGF-beta1 mRNA; test: Dose-dependent antisense inhibition of human TGF-beta1 in HuVEC cells, Lipofectamine 2000, 0.3292-80 nM, comparison with oligos of U.S. Pat. No. 6,436,909 (Example 4); assay type: cell-based; conditions: 80.0 nM
In the oligonucleotide strings, read from the 5' end, every base follows the letter of its sugar. An asterisk marks phosphorothioate; unmarked linkages are phosphodiester. Other units and linkages are bracketed, terminal groups are in braces. A string of capitals states the bases alone. e = 2'-O-(2-methoxyethyl) (MOE); [5mC] = 5-methylcytosine; d = 2'-deoxy (DNA)

{"substance": "414035 (antisense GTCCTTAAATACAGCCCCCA; sugars from the 5' end e2 d13 e5, backbone and methylation of C not given here) [compound 414035]", "experimental_system": "human TGF-beta1 mRNA", "percent inhibition of TGF-beta1 (%)": 93}
{"substance": "413982 (antisense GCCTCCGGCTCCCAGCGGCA; sugars from the 5' end e2 d13 e5, backbone and methylation of C not given here) [compound 413982]", "experimental_system": "human TGF-beta1 mRNA", "percent inhibition of TGF-beta1 (%)": 93}
{"substance": "414036 (antisense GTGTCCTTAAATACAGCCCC; sugars from the 5' end e2 d13 e5, backbone and methylation of C not given here) [compound 414036]", "experimental_system": "human TGF-beta1 mRNA", "percent inhibition of TGF-beta1 (%)": 89}
{"substance": "414040 (antisense e[5mC]*eT*d[5mC]*dT*d[5mC]*dT*d[5mC]*d[5mC]*dA*dT*d[5mC]*dT*dT*dT*dA*eA*eT*eG*eG*eG) [compound 414040]", "experimental_system": "human TGF-beta1 mRNA", "percent inhibition of TGF-beta1 (%)": 93}

---

Overview of reported percent inhibition of TGF-beta1 across a group of substances:
system: human TGF-beta1 mRNA; experiment: Dose-dependent antisense inhibition of human TGF-beta1 in HuVEC cells, Lipofectamine 2000, 0.9375-30 nM (Example 3); format: cell-based; details: 3.75 nM, Lipofectamine 2000
In the oligonucleotide strings, read from the 5' end, every base follows the letter of its sugar. An asterisk marks phosphorothioate; unmarked linkages are phosphodiester. Other units and linkages are bracketed, terminal groups are in braces. A string of capitals states the bases alone. e = 2'-O-(2-methoxyethyl) (MOE); [5mC] = 5-methylcytosine; d = 2'-deoxy (DNA)

{"substance": "413982 (antisense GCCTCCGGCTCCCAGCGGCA; sugars from the 5' end e2 d13 e5, backbone and methylation of C not given here) [compound 413982]", "percent inhibition of TGF-beta1": "88%"}
{"substance": "414040 (antisense e[5mC]*eT*d[5mC]*dT*d[5mC]*dT*d[5mC]*d[5mC]*dA*dT*d[5mC]*dT*dT*dT*dA*eA*eT*eG*eG*eG) [compound 414040]", "percent inhibition of TGF-beta1": "90%"}
{"substance": "414022 (antisense eG*eG*dG*d[5mC]*dT*d[5mC]*d[5mC]*dG*dG*dT*dT*d[5mC]*dT*dG*d[5mC]*eA*e[5mC]*eT*e[5mC]*eT) [compound 414022]", "percent inhibition of TGF-beta1": "76%"}
{"substance": "414102 (antisense eT*eT*dT*dG*dA*dA*d[5mC]*dT*dA*d[5mC]*dA*dT*dG*dG*dG*eT*e[5mC]*e[5mC]*eT*e[5mC]) [compound 414102]", "percent inhibition of TGF-beta1": "70%"}
{"substance": "414036 (antisense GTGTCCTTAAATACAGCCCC; sugars from the 5' end e2 d13 e5, backbone and methylation of C not given here) [compound 414036]", "percent inhibition of TGF-beta1": "86%"}
{"substance": "414035 (antisense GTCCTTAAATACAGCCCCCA; sugars from the 5' end e2 d13 e5, backbone and methylation of C not given here) [compound 414035]", "percent inhibition of TGF-beta1": "88%"}
{"substance": "413970 (antisense eG*e[5mC]*d[5mC]*dT*d[5mC]*dA*dG*dG*d[5mC]*dT*dG*d[5mC]*dT*d[5mC]*d[5mC]*eT*e[5mC]*eG*eG*e[5mC]) [compound 413970]", "percent inhibition of TGF-beta1": "81%"}

---

test system: BALB/c mice; assay: Tolerability in BALB/c mice: plasma transaminases ALT and AST (Example 7); settings: 50 mg/kg twice a week, plasma, Week 2
In the oligonucleotide strings, read from the 5' end, every base follows the letter of its sugar. An asterisk marks phosphorothioate; unmarked linkages are phosphodiester. Other units and linkages are bracketed, terminal groups are in braces. A string of capitals states the bases alone. e = 2'-O-(2-methoxyethyl) (MOE); [5mC] = 5-methylcytosine; d = 2'-deoxy (DNA)
Catalogue of aspartate transaminase levels values
property_measured: aspartate transaminase levels

{"substance": "414036 (antisense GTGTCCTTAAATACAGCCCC; sugars from the 5' end e2 d13 e5, backbone and methylation of C not given here) [compound 414036]", "observed_measurement": "183 IU/L"}
{"substance": "413982 (antisense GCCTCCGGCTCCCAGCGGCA; sugars from the 5' end e2 d13 e5, backbone and methylation of C not given here) [compound 413982]", "observed_measurement": "92 IU/L"}
{"substance": "414040 (antisense e[5mC]*eT*d[5mC]*dT*d[5mC]*dT*d[5mC]*d[5mC]*dA*dT*d[5mC]*dT*dT*dT*dA*eA*eT*eG*eG*eG) [compound 414040]", "observed_measurement": "529 IU/L"}
{"substance": "414035 (antisense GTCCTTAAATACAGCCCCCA; sugars from the 5' end e2 d13 e5, backbone and methylation of C not given here) [compound 414035]", "observed_measurement": "123 IU/L"}

---

system: BALB/c mice; assay: Tolerability in BALB/c mice: plasma transaminases ALT and AST (Example 7); details: 50 mg/kg twice a week, Week 2
In the oligonucleotide strings, read from the 5' end, every base follows the letter of its sugar. An asterisk marks phosphorothioate; unmarked linkages are phosphodiester. Other units and linkages are bracketed, terminal groups are in braces. A string of capitals states the bases alone. e = 2'-O-(2-methoxyethyl) (MOE); [5mC] = 5-methylcytosine; d = 2'-deoxy (DNA)
Here, each record is paired with measured alanine transaminase levels data.

{"substance": "413982 (antisense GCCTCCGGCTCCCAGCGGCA; sugars from the 5' end e2 d13 e5, backbone and methylation of C not given here) [compound 413982]", "alanine transaminase levels, IU/L": 77}
{"substance": "414036 (antisense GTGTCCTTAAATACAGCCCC; sugars from the 5' end e2 d13 e5, backbone and methylation of C not given here) [compound 414036]", "alanine transaminase levels, IU/L": 99}
{"substance": "414040 (antisense e[5mC]*eT*d[5mC]*dT*d[5mC]*dT*d[5mC]*d[5mC]*dA*dT*d[5mC]*dT*dT*dT*dA*eA*eT*eG*eG*eG) [compound 414040]", "alanine transaminase levels, IU/L": 837}
{"substance": "414035 (antisense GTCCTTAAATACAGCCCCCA; sugars from the 5' end e2 d13 e5, backbone and methylation of C not given here) [compound 414035]", "alanine transaminase levels, IU/L": 66}

---

A collection of substances and their measured % inhibition
system: human TGF-beta1 mRNA; assay: Antisense inhibition of human TGF-beta1 mRNA in HuVEC cells, single 10 nM dose, Lipofectamine 2000 (Example 2); format: cell-based; details: 10 nM oligonucleotide, HuVEC, relative to untreated control cells; gapmers targeted to SEQ ID NO: 2
In the oligonucleotide strings, read from the 5' end, every base follows the letter of its sugar. An asterisk marks phosphorothioate; unmarked linkages are phosphodiester. Other units and linkages are bracketed, terminal groups are in braces. A string of capitals states the bases alone. e = 2'-O-(2-methoxyethyl) (MOE); [5mC] = 5-methylcytosine; d = 2'-deoxy (DNA)

{"substance": "414045 (antisense eA*eG*d[5mC]*d[5mC]*dA*dG*dT*dT*dT*d[5mC]*dT*dT*d[5mC]*dT*dG*e[5mC]*e[5mC]*eA*eG*eT) [compound 414045]", "experimental_system": "human TGF-beta1 mRNA", "% inhibition / %": 80}
{"substance": "414096 (antisense e[5mC]*e[5mC]*dA*dA*d[5mC]*d[5mC]*dT*dT*dT*dG*dA*dG*dG*dA*dT*e[5mC]*eT*eT*eG*eG) [compound 414096]", "experimental_system": "human TGF-beta1 mRNA", "% inhibition / %": 74}
{"substance": "414048 (antisense eG*eG*dT*dT*dT*d[5mC]*d[5mC]*d[5mC]*d[5mC]*dA*dG*d[5mC]*d[5mC]*dA*d[5mC]*e[5mC]*e[5mC]*eT*eG*eA) [compound 414048]", "experimental_system": "human TGF-beta1 mRNA", "% inhibition / %": 61}

// provenance: patent US20110172296A1
